Data provenance is patent US9688698B2.

- System name: Human D1 Receptor (Homo sapiens)
- Construct: expressed in transfected cells; host or cells: LTK cell line over-expressing the D1 receptor
- Sequence (P21728 whole entry): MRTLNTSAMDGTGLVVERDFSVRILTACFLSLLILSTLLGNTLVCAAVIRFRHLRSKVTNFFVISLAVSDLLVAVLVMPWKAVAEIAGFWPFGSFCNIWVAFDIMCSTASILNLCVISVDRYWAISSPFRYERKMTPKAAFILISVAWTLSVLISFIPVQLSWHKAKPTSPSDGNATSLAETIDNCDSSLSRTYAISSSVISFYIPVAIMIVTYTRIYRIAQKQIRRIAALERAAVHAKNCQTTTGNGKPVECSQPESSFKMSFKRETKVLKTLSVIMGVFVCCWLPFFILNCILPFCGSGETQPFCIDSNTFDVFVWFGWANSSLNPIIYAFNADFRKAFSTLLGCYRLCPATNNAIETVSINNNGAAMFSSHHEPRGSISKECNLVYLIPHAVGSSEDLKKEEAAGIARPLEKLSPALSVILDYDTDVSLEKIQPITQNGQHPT
- Run description: Human D1 Receptor Binding Assay ([3H]-SCH23390 competition binding)
- Condition info: over-expressing LTK human cell lines; 0.5 nM [3H]-SCH23390; 30 min at 37° C.; footnote a = geometric mean of ≧5 determinations, footnote b = single determination; read-out: Human D1 Receptor Binding, Ki (nM); Geometric mean of 2-4 determinations (unless otherwise indicated)
Counter-ions that a name gives are not always drawn.
Listed here are compounds together with their documented log10 of Ki.
Answers are given as log10 of Ki in nM.

Below, 5 compounds whose answers are already recorded.
{"Compound": "Cc1cc(Oc2nccc3ncsc23)ccc1-c1c(C)cnnc1C [Example 60]", "log10 of Ki": 1.81}
{"Compound": "Cc1cc(Oc2nccc3cc[nH]c23)ccc1-c1c(C)ncc2nccn12", "log10 of Ki": 1.84}
{"Compound": "Cc1ncnc(C)c1-c1cc(F)c(Oc2nccc3ncsc23)c(F)c1", "log10 of Ki": 3.03}
{"Compound": "Cc1ncnc(C)c1-c1cc(F)c(Oc2ncnc3ccsc23)c(F)c1", "log10 of Ki": 2.94}
{"Compound": "Cc1cnnc(C)c1-c1ccc(Oc2nccc3ncsc23)cc1F", "log10 of Ki": 2.04}

Any idea what its log10 of Ki is? The compound is `Cc1ncnc(C)c1-c1ccc(Oc2ncnc3ccsc23)cc1Cl`
1.40

Any idea what its log10 of Ki is? The compound is Cc1cc(Oc2ncnc3ccsc23)ccc1-c1c(C)c(=O)[nH]c(=O)n1C (single isomer, unassigned) [Example 1]
0.61

Any idea what its log10 of Ki is? The compound is `COc1cc(Oc2nccc3ccsc23)ccc1-c1c(C)ncnc1C`
1.13

Any idea what its log10 of Ki is? The compound is COc1cc(Oc2nccc3ccsc23)ccc1-c1cccnc1C [Example 44, trifluoroacetate salt]
1.21

----------
- System name: Human D1 Receptor (Homo sapiens)
- Construct: expressed in transfected cells; host or cells: LTK cell line over-expressing the D1 receptor
- Run description: Human D1 Receptor Binding Assay ([3H]-SCH23390 competition binding)
- Condition info: over-expressing LTK human cell lines; 0.5 nM [3H]-SCH23390; 30 min at 37° C.; footnote a = geometric mean of ≧5 determinations, footnote b = single determination; read-out: Human D1 Receptor Binding, Ki (nM); Geometric mean of 2-4 determinations (unless otherwise indicated)
- Procedure: The affinity of the compounds described herein was determined by competition binding assays similar to those described in Ryman-Rasmussen et al., “Differential activation of adenylate cyclase and receptor internalization by novel dopamine D1 receptor agonists”, Molecular Pharmacology 68(4):1039-1048 (2005). D1 binding assays were performed using over-expressing LTK human cell lines. […] Ki values were calculated according to the Cheng-Prusoff equation: […]
Listed here are molecules together with their documented Ki.
Please give a number only; it is taken to be in nM.

{"Molecule": "Cc1cc(Oc2nccc3ncsc23)ccc1-c1c(C)cnnc1C (single isomer, unassigned) [Example 64]", "U": "nM", "Ki": 32.3}
{"Molecule": "Cc1cc(Oc2nccc3cn[nH]c23)ccc1-c1c(C)n[nH]c(=O)c1C", "U": "nM", "Ki": 120}
{"Molecule": "Cc1cc(Oc2ncnc3ccsc23)ccc1-c1c(C)ncc(=O)n1C", "U": "nM", "Ki": 34.5}
{"Molecule": "Cc1cc(Oc2nccc3ccsc23)c(F)cc1-c1c(C)ncnc1C", "U": "nM", "Ki": 7.9}
{"Molecule": "Cc1cc(Oc2nccc3ccsc23)ccc1-c1c(C)ncc(=O)n1C", "U": "nM", "Ki": 1.6}
{"Molecule": "Cc1n[nH]c(=O)c(C)c1-c1ccc(Oc2nccc3ncsc23)cc1", "U": "nM", "Ki": 25}
{"Molecule": "Cc1cc(Oc2nccc3ccoc23)ccc1-c1c(C)ncnc1C#N", "U": "nM", "Ki": 212}
{"Molecule": "Cc1cc(Oc2nccc3cc[nH]c23)ccc1-c1c(C)ncnc1C#N", "U": "nM", "Ki": 614}
{"Molecule": "Cc1nc2ccnc(Oc3ccc(-c4c(C)n[nH]c(=O)c4C)c(C)c3)c2s1", "U": "nM", "Ki": 106}
{"Molecule": "Cc1ncnc(C)c1-c1cc(F)c(Oc2ncnc3ccsc23)cc1F", "U": "nM", "Ki": 62.4}

Any idea what its Ki is? The molecule is `Cc1ncnc(C)c1-c1ccc(Oc2nccc3ccsc23)c(F)c1C`
40.7

Any idea what its Ki is? The molecule is `Cc1ncnc(C)c1-c1ccc(Oc2nccc3ccsc23)c(F)c1`
28.2

Any idea what its Ki is? The molecule is Cc1cc(Oc2nccc3ccsc23)ccc1-c1c(C)ncnc1C#N (single isomer, unassigned; ent-1) [Example 45]
14.3

Any idea what its Ki is? The molecule is Cc1cc(Oc2nccc3ccsc23)ccc1-c1c(C)ncnc1C#N (single isomer, unassigned; ent-2) [Example 46]
15.1

Any idea what its Ki is? The molecule is `Cc1cc(Oc2nccc3ccoc23)ccc1-c1c(C)ncc2nccn12`
57.2

Any idea what its Ki is? The molecule is `Cc1ncnc(C)c1-c1ccc(Oc2nccc3ncsc23)cc1Cl`
71.9

----------
- System name: Human D1 Receptor (Homo sapiens)
- Construct: expressed in transfected cells; host or cells: LTK cell line over-expressing the D1 receptor
- Run description: Human D1 Receptor Binding Assay ([3H]-SCH23390 competition binding)
- Condition info: over-expressing LTK human cell lines; 0.5 nM [3H]-SCH23390; 30 min at 37° C.; footnote a = geometric mean of ≧5 determinations, footnote b = single determination; read-out: Human D1 Receptor Binding, Ki (nM); Geometric mean of 2-4 determinations (unless otherwise indicated)
- Experimental: The affinity of the compounds described herein was determined by competition binding assays similar to those described in Ryman-Rasmussen et al., “Differential activation of adenylate cyclase and receptor internalization by novel dopamine D1 receptor agonists”, Molecular Pharmacology 68(4):1039-1048 (2005). D1 binding assays were performed using over-expressing LTK human cell lines. […] Ki values were calculated according to the Cheng-Prusoff equation: […]
Reported endpoint: Ki (nM)
Please give a number only; it is taken to be in nM.

Below, 2 compounds whose answers are already recorded.
{"Compound": "Cc1cc(Oc2nccc3ncsc23)ccc1-c1c(C)ncc2nccn12 (single isomer, unassigned; ent-2) [Example 62]", "Reported endpoint": "Ki", "Experimental result": 239}
{"Compound": "Cc1cc(Oc2nccc3ccsc23)ccc1-c1c(C)cnnc1C [Example 14]", "Reported endpoint": "Ki", "Experimental result": 3.3}

We next turn to a different compound, shown below.
Any idea what its Ki is? The compound is COc1cc(Oc2nccc3ccsc23)ccc1-c1c(C)cnnc1C [Example 42]
17.7
